- TARGET SYSTEM: T1, ZFP SBS#1035 (synthetic)
- T1 chain: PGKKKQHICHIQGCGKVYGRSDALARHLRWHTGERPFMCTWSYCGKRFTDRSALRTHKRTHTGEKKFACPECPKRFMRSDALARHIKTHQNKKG
- MEASUREMENT PROTOCOL: EMSA
- ASSAY CONTEXT: tags: MBP fusion
ASSAY METRIC: Kd (nM)
Respond numerically; units are nM and should not be typed.

Provide one value: measured Kd of GTGTTCGTG (dsDNA) DNA 1: GTGTTCGTG DNA 2: CACGAACAC
56

Origin of the recorded values: patent US20030068675
